Data origin, for the record: ChEMBL document CHEMBL4689842

# maps each entry to its Population Healthy Nuclei (%)
# System: U2OS
# Protocol: Multiplex assay against U2OS
# Format: toxicity, cell-based
# Setup Conditions: human, 24 h, 1 µM, compound concentration 1 uM, replicate 1
State the result as a value with its unit after it.

Measured Population Healthy Nuclei (%) of CC[C@@H]1C(=O)N(C)c2cnc(Nc3ccc(C(=O)NC4CCN(C)CC4)cc3OC)nc2N1C1CCCC1 : 73%

Measured Population Healthy Nuclei (%) of NC(=O)c1ccc2nc(-c3ccc(C4(N)CCC4)cc3)c(-c3ccccc3)n2n1 : 76%

Measured Population Healthy Nuclei (%) of C=CC(=O)Nc1cc(-n2c(=O)ccc3cnc4ccc(-c5ccc(NS(C)(=O)=O)cc5)cc4c32)ccc1C : 86%

Measured Population Healthy Nuclei (%) of Cc1c(Nc2ccc(S(=O)(=O)N3CCN(C)CC3)cc2F)nc2ccc(-c3cnn(C4CC4)c3)cn2c1=O : 95%

* * *

# System: HEK-293T
# Protocol: Multiplex assay against HEK293T
# Format: toxicity, cell-based
# Setup Conditions: human, 24 h, 10 µM, compound concentration 10 uM, replicate 1
# maps each entry to its Population Apoptotic (%)
Give the value in % but do not write % after it.

INSERT INTO results (molecule, endpoint_name, obs_value) VALUES
  ('N#Cc1cccc(C(=O)Nc2cc(-c3ccccc3)nn2-c2ccccc2)c1', 'Population Apoptotic (%)', 65);

Attention now turns to another entry.
Measured Population Apoptotic (%) of Cc1c(Nc2ccc(S(=O)(=O)N3CCN(C)CC3)cc2F)nc2ccc(Nc3cnn(C4CC4)c3)cn2c1=O : 16

* * *

# Tested on: Fibroblast
# Protocol: Multiplex assay against human fibroblast
# Assay type: toxicity, cell-based
# Setup Conditions: 48 h, 10 µM, compound concentration 10 uM, replicate 2
Endpoint Name: Population Membrane Permeable-Phenotype (%)
Give the value in % but do not write % after it.

INSERT INTO assay_data (molecule, units_text, obs_value) VALUES
  ('C=CC(=O)Nc1cc(-n2c(=O)ccc3cnc4ccc(-c5ccc(NS(C)(=O)=O)cc5)cc4c32)ccc1C', '%', 33),
  ('Oc1cccc(-c2nc(N3CCOCC3)c3oc4ncccc4c3n2)c1 [PI-103]', '%', 20),
  ('CCCc1cc(C)[nH]c(=O)c1CNC(=O)c1cc(-c2ccc(N3CCN(C(C)C)CC3)nc2)cc2c1cnn2C(C)C', '%', 0),
  ('Cc1ccc(S(=O)(=O)NC2c3ccccc3Oc3ccccc32)cc1', '%', 25);

Measured Population Membrane Permeable-Phenotype (%) of CC(C)C[C@H](NC(=O)[C@H](Cc1ccccc1)NC(=O)CNC(=O)CNC(=O)[C@@H](N)Cc1ccc(O)cc1)C(=O)O [ENKEPHALIN] : 18

Measured Population Membrane Permeable-Phenotype (%) of CN(c1cc(C(F)(F)F)nc(OCCC(=O)O)n1)c1cccc2c1CCC2 : 15

* * *

# Tested on: U2OS
# Protocol: Multiplex assay against U2OS
# Type: toxicity, cell-based
# Setup Conditions: human, 24 h, 10 µM, compound concentration 10 uM, replicate 2
Outcome label depends on Population Apoptotic (%) relative to 40%: at/above gives Y, below gives N.

Example cases with answers are listed next.
INSERT INTO assay_data (molecule, category_label) VALUES
  ('CCCCN(CC)c1nc(C)nc2c1c(C)cn2-c1c(C)cc(C)cc1C.Cl', 'N'),
  ('Oc1cccc(-c2nc(N3CCOCC3)c3oc4ncccc4c3n2)c1', 'Y'),
  ('NC(=O)c1ccc2nc(-c3ccc(C4(N)CCC4)cc3)c(-c3ccccc3)n2n1', 'N'),
  ('c1ccc(-c2oc3ncnc(NC[C@@H]4CCCO4)c3c2-c2ccccc2)cc1', 'Y');

### Prompt Check the entry CC(C)c1cc(Nc2nc(N3CCC[C@H](N)C3)ncc2C(N)=O)cc(C(C)C)n1 : does Population Apoptotic (%) equal or exceed 40%?
### Response Y

### Prompt Check the entry CCCCCNC(=N)N/N=C/c1c[nH]c2ccc(OC)cc12.O=C(O)/C=C\C(=O)O [TEGASEROD MALEATE] : does Population Apoptotic (%) equal or exceed 40%?
### Response Y

### Prompt Check the entry CN1C(=O)[C@@H](NC(=O)c2cc3ccccc3[nH]2)N=C(c2ccccc2)c2ccccc21 [DEVAZEPIDE] : does Population Apoptotic (%) equal or exceed 40%?
### Response Y

* * *

# System: Fibroblast
# Protocol: Multiplex assay against human fibroblast
# Type: toxicity, cell-based
# Setup Conditions: 48 h, 1 µM, compound concentration 1 uM, replicate 2
Assign labels as follows, please: Yes for Population Fragmented Nuclei (%) below 20%; No for Population Fragmented Nuclei (%) equal to or exceeding 20%.

Example cases with answers are listed next.
INSERT INTO results (compound, category_label) VALUES
  ('Cl.NC[C@@H]1O[C@H](C23CC4CC(CC(C4)C2)C3)Cc2c1ccc(O)c2O', 'No'),
  ('CC(C)[C@H](CO)Nc1nc(Nc2cccc(Cl)c2)c2ncn(C(C)C)c2n1', 'No'),
  ('CCCCCNC(=N)N/N=C/c1c[nH]c2ccc(OC)cc12.O=C(O)/C=C\C(=O)O [TEGASEROD MALEATE]', 'No');

### Prompt Bench note: check whether CN1C(=O)[C@@H](NC(=O)c2cc3ccccc3[nH]2)N=C(c2ccccc2)c2ccccc21 [DEVAZEPIDE] shows Population Fragmented Nuclei (%) below 20%
### Response Yes

### Prompt Bench note: check whether Cc1ccc(S(=O)(=O)NC2c3ccccc3Oc3ccccc32)cc1 shows Population Fragmented Nuclei (%) below 20%
### Response Yes

### Prompt Bench note: check whether C=CC(=O)Nc1cc(-n2c(=O)ccc3cnc4ccc(-c5ccc(NS(C)(=O)=O)cc5)cc4c32)ccc1C shows Population Fragmented Nuclei (%) below 20%
### Response No

### Prompt Bench note: check whether CC(/C=C1\SC(=S)N(CCCC(=O)Nc2ccc(C(=O)O)c(O)c2)C1=O)=C\c1ccccc1 shows Population Fragmented Nuclei (%) below 20%
### Response Yes

### Prompt Bench note: check whether N#CCNC(=O)c1ccc(-c2ccnc(Nc3ccc(N4CCOCC4)cc3)n2)cc1 shows Population Fragmented Nuclei (%) below 20%
### Response No

### Prompt Bench note: check whether CCCCN(CC)c1nc(C)nc2c1c(C)cn2-c1c(C)cc(C)cc1C.Cl shows Population Fragmented Nuclei (%) below 20%
### Response No

* * *

# Tested on: Fibroblast
# Protocol: Multiplex assay against human fibroblast
# Type: toxicity, cell-based
# Setup Conditions: 12 h, 10 µM, compound concentration 10 uM, replicate 1
Outcome label depends on Population Pyknosed Nuclei (%) relative to 30%: at/above gives Condition met, below gives Condition not met.

Example cases with answers are listed next.
INSERT INTO measurements (compound, tested_system, category_label) VALUES
  ('CC(/C=C1\SC(=S)N(CCCC(=O)Nc2ccc(C(=O)O)c(O)c2)C1=O)=C\c1ccccc1', 'Fibroblast', 'Condition not met'),
  ('CC(C)c1cc(Nc2nc(N3CCC[C@H](N)C3)ncc2C(N)=O)cc(C(C)C)n1', 'Fibroblast', 'Condition met'),
  ('CC(Cc1ccc(O)c(O)c1)C(C)Cc1ccc(O)c(O)c1 (stereo not drawn) [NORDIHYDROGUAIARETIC ACID]', 'Fibroblast', 'Condition met'),
  ('CN1C(=O)[C@@H](NC(=O)c2cc3ccccc3[nH]2)N=C(c2ccccc2)c2ccccc21 [DEVAZEPIDE]', 'Fibroblast', 'Condition met'),
  ('CC[C@@]1(O)C(=O)OCc2c1cc1n(c2=O)Cc2cc3ccccc3nc2-1', 'Fibroblast', 'Condition not met'),
  ('CCOC(=O)CCNc1cc(N2CCc3ccccc3CC2)nc(-c2ccccn2)n1', 'Fibroblast', 'Condition not met');

# ---- query compound ----
### Prompt Check the entry CCCc1cc(C)[nH]c(=O)c1CNC(=O)c1cc(-c2ccc(N3CCN(C(C)C)CC3)nc2)cc2c1cnn2C(C)C : does Population Pyknosed Nuclei (%) equal or exceed 30%?
### Response Condition met

* * *

# maps each entry to its Population Pyknosed Nuclei (%)
# System: HEK-293T
# Protocol: Multiplex assay against HEK293T
# Assay type: toxicity, cell-based
# Setup Conditions: human, 48 h, 1 µM, compound concentration 1 uM, replicate 2
Give the value in % but do not write % after it.

Please review the entries below; each comes with its answer.
INSERT INTO results (molecule, endpoint_name, units_text, obs_value) VALUES
  ('CC(/C=C1\SC(=S)N(CCCC(=O)Nc2ccc(C(=O)O)c(O)c2)C1=O)=C\c1ccccc1', 'Population Pyknosed Nuclei (%)', '%', 11),
  ('CC(Cc1ccc(O)c(O)c1)C(C)Cc1ccc(O)c(O)c1 (centres undefined) [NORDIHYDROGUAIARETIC ACID]', 'Population Pyknosed Nuclei (%)', '%', 23),
  ('CCCc1cc(C)[nH]c(=O)c1CNC(=O)c1cc(-c2ccc(N3CCN(C(C)C)CC3)nc2)cc2c1cnn2C(C)C', 'Population Pyknosed Nuclei (%)', '%', 25),
  ('CC(C)c1cc(Nc2nc(N3CCC[C@H](N)C3)ncc2C(N)=O)cc(C(C)C)n1', 'Population Pyknosed Nuclei (%)', '%', 36),
  ('Oc1cccc(-c2nc(N3CCOCC3)c3oc4ncccc4c3n2)c1 [PI-103]', 'Population Pyknosed Nuclei (%)', '%', 31),
  ('CC(C)C[C@H](NC(=O)[C@H](Cc1ccccc1)NC(=O)CNC(=O)CNC(=O)[C@@H](N)Cc1ccc(O)cc1)C(=O)O [ENKEPHALIN]', 'Population Pyknosed Nuclei (%)', '%', 11),
  ('CCCCCNC(=N)N/N=C/c1c[nH]c2ccc(OC)cc12.O=C(O)/C=C\C(=O)O [TEGASEROD MALEATE]', 'Population Pyknosed Nuclei (%)', '%', 14),
  ('CN1C(=O)[C@@H](NC(=O)c2cc3ccccc3[nH]2)N=C(c2ccccc2)c2ccccc21 [DEVAZEPIDE]', 'Population Pyknosed Nuclei (%)', '%', 20);

Attention now turns to another entry.
Measured Population Pyknosed Nuclei (%) of C=CC(=O)Nc1cc(-n2c(=O)ccc3cnc4ccc(-c5ccc(NS(C)(=O)=O)cc5)cc4c32)ccc1C : 10
